Target: Protein FosB (Mus musculus) (UniProt P13346)
Sequence (P13346 whole entry, looked up): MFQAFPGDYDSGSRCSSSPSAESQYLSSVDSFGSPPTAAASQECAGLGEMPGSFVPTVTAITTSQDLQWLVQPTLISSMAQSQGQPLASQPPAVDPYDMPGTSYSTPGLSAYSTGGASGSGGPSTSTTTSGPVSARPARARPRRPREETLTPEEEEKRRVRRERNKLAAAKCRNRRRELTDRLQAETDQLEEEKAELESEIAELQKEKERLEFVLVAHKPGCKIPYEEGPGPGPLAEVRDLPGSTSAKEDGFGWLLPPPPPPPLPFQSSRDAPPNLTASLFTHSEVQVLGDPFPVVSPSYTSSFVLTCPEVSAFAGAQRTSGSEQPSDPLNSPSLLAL
Assay: activators of delta FosB homodimer, primary screen, biochemical, fluorescence polarization, TAMRA-CDK5 oligo, single point (AID 493131);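 note: fluorescence polarization rise as delta FosB binds a TAMRA Cdk5 AP-1 oligo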
Conditions: purified delta FosB, at 25 µM, active compounds read high, percent of positive-control signal above neutral wells
The campaign covered roughly 340,000 compounds. About 3,300 (0.97%) were called active. The list comes from a sample in which actives are over-represented; it also holds close analogues and randomly drawn compounds.
Value kind: activation (%)
Just the number in %, nothing appended.

Some solved cases for reference:
>  <Compound>
Cc1cccc(CSc2nc3c(c(=O)n2C)SCC3)c1

>  <Unit annotation>
%

>  <activation>
-8.87

$$$$
>  <Compound>
Cc1cccc(C)c1NC(=O)c1ccc(CN2CCc3ccccc3C2)cc1

>  <Unit annotation>
%

>  <activation>
5.39

$$$$
>  <Compound>
CCCC1C(=O)N2C(N(C)C)=Nc3ccc(C)cc3N2C1=O (stereo not drawn)

>  <Unit annotation>
%

>  <activation>
6.69

$$$$
>  <Compound>
CC(C)Cn1c(N)c(C(=O)COC(=O)CN2C(=O)C3CC=CCC3C2=O)c(=O)n(C)c1=O (stereo not drawn)

>  <Unit annotation>
%

>  <activation>
-11.5

$$$$
>  <Compound>
c1ccc(C2=Nc3cccc4cccc(c34)N2)cc1

>  <Unit annotation>
%

>  <activation>
28.1

$$$$

Reported activation ( "O=C(NCCc1ccccn1)c1cc(-c2ccc(Cl)cc2)nc2ccccc12" ) = -16.7

Reported activation ( "CC(=NC1CCN(Cc2ccccc2)CC1)c1c(O)[nH]c(=O)[nH]c1=O" ) = 6.14

Reported activation ( "O=C(NCC1CCCCC1)NCC1CCCCC1" ) = -3.89

* * *

Molecular target: Protein FosB (Mus musculus) (UniProt P13346)
Assay: activators of delta FosB homodimer, primary screen, biochemical, fluorescence polarization, TAMRA-CDK5 oligo, single point (AID 493131);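 note: fluorescence polarization rise as delta FosB binds a TAMRA Cdk5 AP-1 oligo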
Conditions: purified delta FosB, at 25 µM, percent of positive-control signal above neutral wells
About 3,300 (0.97%) of roughly 340,000 compounds were called active.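 The calls were made as follows: active = mean activation above about 17%, with every replicate also reaching it (limit read from the data, passing the limit was not always enough); inconclusive = only one of the two conditions met; inactive = the rest.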 This is one part of a sample in which actives are shown more often than they occur.
Output constraint: value belongs to YES (active), NO (inactive)

>  <Smiles record>
CCN(CC)c1ccc(S(=O)(=O)N2CCOCC2)cc1NC(=O)CSc1cccc[n+]1[O-]

>  <Target or test system>
Protein FosB (Mus musculus) (UniProt P13346)

>  <Group>
NO

$$$$
>  <Smiles record>
CCN(CC)CCOc1ccc2c(c1)C(=NNC(=O)c1ccccn1)c1cc(OCCN(CC)CC)ccc1-2

>  <Target or test system>
Protein FosB (Mus musculus) (UniProt P13346)

>  <Group>
YES

$$$$
>  <Smiles record>
Cc1ccc(-c2cnc(NC(=O)CCC(=O)N(C)Cc3ccccc3)n2C)cc1

>  <Target or test system>
Protein FosB (Mus musculus) (UniProt P13346)

>  <Group>
NO

$$$$

For "O=C(Cn1cnc2c(nnn2Cc2ccc(F)cc2)c1=O)NCc1ccc2c(c1)OCO2" , what call appears in the results of this test?
YES

For "S=c1c2[nH]cnc2ncn1CCSc1ncnc2nc[nH]c12" , what call appears in the results of this test?
NO

For "Cc1cc(C)c(C#N)c(SCC(=O)Nc2ccccc2)n1" , what call appears in the results of this test?
NO

For "O=C(Nc1ccc(N2CCCC2=O)cc1)c1cncc(Br)c1" , what call appears in the results of this test?
NO
